Target: T1, panel of 60 human kinases (Homo sapiens, UniProt P50750)
T1 construct: purchased Reaction Biology Corp
T1 sequence (P50750 whole entry): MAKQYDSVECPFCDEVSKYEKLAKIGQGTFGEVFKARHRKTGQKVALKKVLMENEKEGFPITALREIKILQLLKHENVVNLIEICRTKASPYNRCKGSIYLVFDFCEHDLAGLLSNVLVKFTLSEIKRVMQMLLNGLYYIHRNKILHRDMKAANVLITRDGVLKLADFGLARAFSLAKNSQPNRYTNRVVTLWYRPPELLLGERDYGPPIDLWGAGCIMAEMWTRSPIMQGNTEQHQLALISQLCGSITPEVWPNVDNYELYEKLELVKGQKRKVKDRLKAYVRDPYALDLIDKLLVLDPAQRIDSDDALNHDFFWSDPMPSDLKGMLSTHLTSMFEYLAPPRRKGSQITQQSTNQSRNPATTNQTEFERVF
Assay: Radiolabeled ATP kinase assay, panel of 60 kinases (Table S5)
Type: biochemical
Settings: CDK9/cyclin T1; 0.1 μM; 10 μM ATP; read-out: % Enzyme Activity (relative to DSMO controls)
reportedMetric: remaining activity at 0.1 µM (%)

compound=CN1CCN(Cc2ccc(-c3cnc4[nH]cc(-c5ccncc5)c4c3)cc2)CC1 reportedmetric="remaining activity at 0.1 µM" assayresult=47.9
compound=CN1CCN(Cc2ccc(-c3cnc4[nH]cc(-c5ccccc5Cl)c4c3)cc2)CC1 reportedmetric="remaining activity at 0.1 µM" assayresult=82.3
compound=CN1CCN(Cc2ccc(-c3cnc4[nH]cc(-c5cnn(Cc6ccccc6)c5)c4c3)cc2)CC1 reportedmetric="remaining activity at 0.1 µM" assayresult=57.8
compound=Cc1nn(C)c(C)c1-c1c[nH]c2ncc(-c3ccc(CN4CCN(C)CC4)cc3)cc12 reportedmetric="remaining activity at 0.1 µM" assayresult=85.8
compound=CN1CCN(Cc2ccc(-c3cnc4[nH]cc(-c5cccc(Cl)c5)c4c3)cc2)CC1 reportedmetric="remaining activity at 0.1 µM" assayresult=78
compound=COc1ccccc1-c1c[nH]c2ncc(-c3ccc(CN4CCN(C)CC4)cc3)cc12 reportedmetric="remaining activity at 0.1 µM" assayresult=46.3
compound=CN1CCN(Cc2ccc(-c3cnc4[nH]cc(-c5ccc6c(c5)OCCO6)c4c3)cc2)CC1 reportedmetric="remaining activity at 0.1 µM" assayresult=85.5
compound="CN1CCN(Cc2ccc(-c3cnc4[nH]cc(-c5ccc6[nH]ccc6c5)c4c3)cc2)CC1 [Compound 1, reference compound]" reportedmetric="remaining activity at 0.1 µM" assayresult=96.6
compound=CN1CCN(Cc2ccc(-c3cnc4[nH]cc(-c5ccoc5)c4c3)cc2)CC1 reportedmetric="remaining activity at 0.1 µM" assayresult=96.1

----------
Target: panel of 60 human kinases (Homo sapiens, UniProt Q13164)
Construct: purchased Reaction Biology Corp
Sequence (Q13164 whole entry): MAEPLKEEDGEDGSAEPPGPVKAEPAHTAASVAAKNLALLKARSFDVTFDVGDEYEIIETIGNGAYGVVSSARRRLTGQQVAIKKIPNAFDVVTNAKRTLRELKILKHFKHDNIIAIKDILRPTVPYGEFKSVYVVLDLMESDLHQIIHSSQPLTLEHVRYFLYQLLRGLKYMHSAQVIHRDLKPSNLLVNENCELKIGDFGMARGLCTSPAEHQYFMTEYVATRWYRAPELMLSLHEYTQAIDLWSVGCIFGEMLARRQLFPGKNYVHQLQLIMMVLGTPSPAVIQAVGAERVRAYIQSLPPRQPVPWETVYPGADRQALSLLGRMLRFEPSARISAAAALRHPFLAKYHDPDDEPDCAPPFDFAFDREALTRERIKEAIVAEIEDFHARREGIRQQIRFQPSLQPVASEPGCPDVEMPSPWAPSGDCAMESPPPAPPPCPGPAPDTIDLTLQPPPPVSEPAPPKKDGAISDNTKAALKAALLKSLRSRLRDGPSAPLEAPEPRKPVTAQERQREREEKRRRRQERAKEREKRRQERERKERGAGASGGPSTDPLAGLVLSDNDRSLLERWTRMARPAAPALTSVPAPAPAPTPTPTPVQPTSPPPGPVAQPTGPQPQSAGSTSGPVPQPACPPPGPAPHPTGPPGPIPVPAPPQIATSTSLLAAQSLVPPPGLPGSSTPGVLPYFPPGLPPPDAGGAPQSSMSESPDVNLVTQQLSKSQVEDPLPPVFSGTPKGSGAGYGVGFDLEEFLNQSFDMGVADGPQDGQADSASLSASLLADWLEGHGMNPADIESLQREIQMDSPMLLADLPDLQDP
Assay: Radiolabeled ATP kinase assay, panel of 60 kinases (Table S5)
Format: biochemical
Details: ERK5/MAPK7 (CD); 0.1 μM; 10 μM ATP; read-out: % Enzyme Activity (relative to DSMO controls)
reportedMetric: remaining activity at 0.1 µM (%)

compound="CN1CCN(Cc2ccc(-c3cnc4[nH]cc(-c5ccncc5)c4c3)cc2)CC1 [Compound 7n]" measuredtarget="panel of 60 human kinases (Homo sapiens, UniProt Q13164)" displayunit=% assayresult=98.9
compound="CN1CCN(Cc2ccc(-c3cnc4[nH]cc(-c5cccc(Cl)c5)c4c3)cc2)CC1 [Compound 7ad]" measuredtarget="panel of 60 human kinases (Homo sapiens, UniProt Q13164)" displayunit=% assayresult=93.9
compound="CN1CCN(Cc2ccc(-c3cnc4[nH]cc(-c5ccoc5)c4c3)cc2)CC1 [Compound 7w]" measuredtarget="panel of 60 human kinases (Homo sapiens, UniProt Q13164)" displayunit=% assayresult=96.3
compound="Cc1nn(C)c(C)c1-c1c[nH]c2ncc(-c3ccc(CN4CCN(C)CC4)cc3)cc12 [Compound 7ai]" measuredtarget="panel of 60 human kinases (Homo sapiens, UniProt Q13164)" displayunit=% assayresult=86
compound="CN1CCN(Cc2ccc(-c3cnc4[nH]cc(-c5ccc6c(c5)OCCO6)c4c3)cc2)CC1 [Compound 7d]" measuredtarget="panel of 60 human kinases (Homo sapiens, UniProt Q13164)" displayunit=% assayresult=87.5
compound="COc1ccccc1-c1c[nH]c2ncc(-c3ccc(CN4CCN(C)CC4)cc3)cc12 [Compound 7at]" measuredtarget="panel of 60 human kinases (Homo sapiens, UniProt Q13164)" displayunit=% assayresult=92.7
compound="CN1CCN(Cc2ccc(-c3cnc4[nH]cc(-c5ccccc5Cl)c4c3)cc2)CC1 [Compound 7as]" measuredtarget="panel of 60 human kinases (Homo sapiens, UniProt Q13164)" displayunit=% assayresult=51.2
compound="CN1CCN(Cc2ccc(-c3cnc4[nH]cc(-c5cnn(Cc6ccccc6)c5)c4c3)cc2)CC1 [Compound 7ah]" measuredtarget="panel of 60 human kinases (Homo sapiens, UniProt Q13164)" displayunit=% assayresult=52.1
compound="CN1CCN(Cc2ccc(-c3cnc4[nH]cc(-c5ccc6[nH]ccc6c5)c4c3)cc2)CC1 [Compound 1, reference compound]" measuredtarget="panel of 60 human kinases (Homo sapiens, UniProt Q13164)" displayunit=% assayresult=87.5

Reference source for all entries: patent US12227500B2
